Tested on: SNB-78
assay-comment: NCI tumour cell line growth inhibition, 48 h
Calls of active or inactive are those of the source. No stated cut-off is given here; in the data, active = GI50 up to about 1.1 µM and inactive = higher.
Hi! Could you answer with just one of these? active, inactive

molecule: CCOC(=O)N[C@@H]1C(CC(=O)OC)O[C@H]2OC(C)(C)O[C@H]21 (stereo partly specified)
qualitative-label: inactive

molecule: CCCOP1(=O)C=CC(Cl)=C(C)C1 (stereo unspecified)
qualitative-label: inactive

molecule: CCOc1ccc2nc(NC(=O)C(=O)C(C#N)CC(C)(C)C=O)sc2c1 (stereo unspecified)
qualitative-label: inactive

molecule: O=C(O)/C=C/n1c2ccccc2c(=O)c2ccccc21
qualitative-label: inactive

molecule: CCOC(=O)[C@H]1Nc2ccc(Cl)cc2[C@H]2CCC[C@@H]12
qualitative-label: inactive

molecule: COc1ccc2c3c1O[C@H]1C[C@@H](O)C=C[C@@]31CCN(C)C2
qualitative-label: inactive

molecule: CC(N)C(=O)c1ccc(O)cc1 (stereo unspecified)
qualitative-label: inactive

molecule: C=C(CN(C)C)C(=O)c1ccc(C)cc1C
qualitative-label: inactive

Could you please tell me the result logged for `O=C1c2ccsc2C(=O)c2sc(CO)cc21` in this assay?
active

Returns: the outcome recorded for CC1OC1C(=O)C1(O)C(C)C(O)C23OC2(C(O)c2c(O)cccc2C3=O)C1O (stereo unspecified) in this assay.
active

Recorded test outcome, item COC(=O)C(NC(=O)c1ccccc1)C(c1ccc(Cl)cc1)P(=O)(OC)OC (stereo unspecified)
inactive

====

Test system: OVCAR-5
assay-comment: NCI tumour cell line growth inhibition, 48 h
Calls of active or inactive are those of the source. Cut-off read from the data, not from the text of the source: active = GI50 up to about 1.1 µM and inactive = higher.
value-type: GI50

compound: CCOP(=O)(Cc1nc(C#N)c(N)o1)OCC
tested-target: OVCAR-5
GI50: > 100 µM (inactive)

For each entry beneath this line, provide reported GI50.
1. O=C(C1OC1c1cccc([N+](=O)[O-])c1)C12CC3CC(CC(C3)C1)C2 (stereo not drawn)
2. N#CC(C#N)=c1c2ccccc2c(=C(C#N)C#N)c2ccccc12

1: 7.21 µM (inactive); 2: 20.9 µM (inactive)

Batch request: GI50 for each of the following compounds.
1. CCSC1=CC(=O)c2nc3ccccc3c3ccnc1c23
2. CCOC(=O)NC(Nc1ccc([N+](=O)[O-])cc1)(C(F)(F)F)C(F)(F)F
3. Cc1nn(-c2ccccn2)c2c1C(SC#N)=C(C=O)CC2
4. CN1C(=O)c2cccc3c([N+](=O)[O-])ccc(c23)C1=O

1. 3.85 µM (inactive)
2. > 100 µM (inactive)
3. 4.85 µM (inactive)
4. 3.5 µM (inactive)

Here are 2 compounds. What values of GI50 were reported for them?
1. CN(C)CCNC(=O)c1cc(NC(=O)c2cc(NC(=O)CC/C=C3/[C@@H]4CC[C@H]3N=N4)cn2C)cn1C
2. Cc1cc2c(=Cc3ccc(N(C)C)cc3)c3ccccc3n2[n+]1C

> 100 µM (inactive)
5.87 µM (inactive)

Batch request: GI50 for each of the following compounds.
1. CC1=CC(=O)/C(=C/n2c(=S)[nH]c3cc(C)ccc32)C(=O)O1
2. COc1ccc(-c2cc(-c3cc(C)cc(Br)c3O)no2)cc1
3. Cc1c(C#N)c2nnn(-c3ccc([N+](=O)[O-])cc3)c(=O)n2c1-c1ccccc1
4. N/C(=C\c1ccc(OCc2ccccc2)c(OCc2ccccc2)c1[N+](=O)[O-])C(=O)O
5. Cc1nc2c(cc1C(=O)N/N=C/c1ccc([N+](=O)[O-])cc1)c(=O)n(C)c(=O)n2C

["> 100 µM (inactive)", "30.4 µM (inactive)", "17.1 µM (inactive)", "> 100 µM (inactive)", "> 100 µM (inactive)"]
